Biological target: T1, Cathepsin K (UniProt P43235 115-329)
T1 sequence (looked up): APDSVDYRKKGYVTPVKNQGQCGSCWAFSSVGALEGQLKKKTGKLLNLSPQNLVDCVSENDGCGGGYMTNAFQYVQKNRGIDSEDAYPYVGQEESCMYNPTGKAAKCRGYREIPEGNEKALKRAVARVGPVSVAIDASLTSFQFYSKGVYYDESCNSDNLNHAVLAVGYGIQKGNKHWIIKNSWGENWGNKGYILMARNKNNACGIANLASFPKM
Experiment: fluorescence-based enzyme inhibition assay
pKi: −log10 of the molar value. Positions of bridges follow the written chain, without caps; N, C: chain ends. No end group written: not given here. alpha,alpha'‑meta‑xylylene = alpha,alpha'-meta-xylylene linker (from a,a'-dibromo-meta-xylene) bridging two cysteines via bis-thioether
metric.name: pKi

SCESVCKPWGPKVP (linker 2-6 via alpha,alpha'‑meta‑xylylene, 14-mer) [SCESVCKPWGPKVP (SEQ ID NO:55)] :: 4.79
SCEEVCKPGGP (linker 2-6 via alpha,alpha'‑meta‑xylylene) [SCEEVCKPGGP (SEQ ID NO:47)] :: < 4.00
SCESVCKMTGL (linker 2-6 via alpha,alpha'‑meta‑xylylene) [SCESVCKMTGL (SEQ ID NO:37)] :: < 4.00

Look up pKi: SCEVVCKPTGL (linker 2-6 via alpha,alpha'‑meta‑xylylene) [SCEVVCKPTGL (SEQ ID NO:39)]
< 4.00

Recorded values, source patent US20150133367A1.
